FYI, the data here is from patent US11752139B2.

assay.name: clinical
run.parameters: human, in vivo, 5 mg/m2, AUC24
measured.endpoint: AUC

Find the measured AUC of CCc1c2c(nc3ccc(OC(=O)N4CCC(N5CCCCC5)CC4)cc13)-c1cc3c(c(=O)n1C2)COC(=O)[C@]3(O)CC [oral irinotecan, reference compound] and report it.
50.9 ng·h/mL

###

assay.name: clinical
run.parameters: human, in vivo, 240 mg/m2, Observed Mean (Cmax)
measured.endpoint: Cmax (ng/mL)
Field: numeric (ng/mL). Do not append units.

Find the measured Cmax of CCc1c2c(nc3ccc(OC(=O)N4CCC(N5CCCCC5)CC4)cc13)-c1cc3c(c(=O)n1C2)COC(=O)[C@]3(O)CC [oral irinotecan, reference compound] and report it.
798

###

assay.name: clinical
run.parameters: human, in vivo, po, 320 mg/m2, Tmax
measured.endpoint: Tmax (h)
Field: numeric (h). Do not append units.

Find the measured Tmax of CCc1c2c(nc3ccc(OC(=O)N4CCC(N5CCCCC5)CC4)cc13)-c1cc3c(c(=O)n1C2)COC(=O)[C@]3(O)CC [oral irinotecan, reference compound] and report it.
3

###

assay.name: clinical
run.parameters: human, in vivo, 30 mg/m2, Cmax
measured.endpoint: Cmax

Find the measured Cmax of CCc1c2c(nc3ccc(OC(=O)N4CCC(N5CCCCC5)CC4)cc13)-c1cc3c(c(=O)n1C2)COC(=O)[C@]3(O)CC [oral irinotecan, reference compound] and report it.
57.3 ng/mL

###

assay.name: clinical
run.parameters: human, in vivo, po, tmax, dose 280 mg/m^2 oral irinotecan + 15 mg HM30181A; N = 3
measured.endpoint: Tmax (h)
Field: numeric (h). Do not append units.

Find the measured Tmax of CCc1c2c(nc3ccc(OC(=O)N4CCC(N5CCCCC5)CC4)cc13)-c1cc3c(c(=O)n1C2)COC(=O)[C@]3(O)CC [oral irinotecan, reference compound] and report it.
2

###

assay.name: Study 2: pharmacokinetics of oral irinotecan and M1, 5-20 mg/m^2 per day for 10 days during a 21 day cycle
run.parameters: human, in vivo, oral, 10 mg/m2, Cmax, Day 12; dose group 10 mg/m^2; mean
measured.endpoint: Cmax (ng/mL)
Field: numeric (ng/mL). Do not append units.

Find the measured Cmax of CCc1c2c(nc3ccc(OC(=O)N4CCC(N5CCCCC5)CC4)cc13)-c1cc3c(c(=O)n1C2)COC(=O)[C@]3(O)CC [oral irinotecan, reference compound] and report it.
17.9

###

assay.name: Study 2: pharmacokinetics of oral irinotecan and M1, 5-20 mg/m^2 per day for 10 days during a 21 day cycle
run.parameters: human, in vivo, oral, 15 mg/m2, Cmax, Day 12; dose group 15 mg/m^2; mean
measured.endpoint: Cmax (ng/mL)
Field: numeric (ng/mL). Do not append units.

Find the measured Cmax of CCc1c2c(nc3ccc(OC(=O)N4CCC(N5CCCCC5)CC4)cc13)-c1cc3c(c(=O)n1C2)COC(=O)[C@]3(O)CC [oral irinotecan, reference compound] and report it.
38.1

###

assay.name: clinical
run.parameters: human, in vivo, 280 mg/m2, Observed Mean AUCinf
measured.endpoint: AUC0-inf

Find the measured AUC0-inf of CCc1c2c(nc3ccc(OC(=O)N4CCC(N5CCCCC5)CC4)cc13)-c1cc3c(c(=O)n1C2)COC(=O)[C@]3(O)CC [oral irinotecan, reference compound] and report it.
6980 ng·h/mL

###

assay.name: clinical
run.parameters: human, in vivo, 25 mg/m2, AUC24
measured.endpoint: AUC (ng·h/mL)
Field: numeric (ng·h/mL). Do not append units.

Find the measured AUC of CCc1c2c(nc3ccc(OC(=O)N4CCC(N5CCCCC5)CC4)cc13)-c1cc3c(c(=O)n1C2)COC(=O)[C@]3(O)CC [oral irinotecan, reference compound] and report it.
703

###

run.parameters: dose 240 mg/m^2
measured.endpoint: Observed Mean AUCinf (µg·h/mL)
Field: numeric (µg·h/mL). Do not append units.

Find the measured Observed Mean AUCinf of CCc1c2c(nc3ccc(O)cc13)-c1cc3c(c(=O)n1C2)COC(=O)[C@]3(O)CC and report it.
0.224

###

run.parameters: dose 320 mg/m^2
measured.endpoint: Observed Mean AUCinf
Entry format: amount then unit.

Find the measured Observed Mean AUCinf of CCc1c2c(nc3ccc(O)cc13)-c1cc3c(c(=O)n1C2)COC(=O)[C@]3(O)CC and report it.
349 ng·h/mL

###

assay.name: clinical
run.parameters: human, in vivo, 15 mg/m2, AUC24
measured.endpoint: AUC (ng·h/mL)
Field: numeric (ng·h/mL). Do not append units.

Find the measured AUC of CCc1c2c(nc3ccc(OC(=O)N4CCC(N5CCCCC5)CC4)cc13)-c1cc3c(c(=O)n1C2)COC(=O)[C@]3(O)CC [oral irinotecan, reference compound] and report it.
194

###

assay.name: Study 2: pharmacokinetics of oral irinotecan and M1, 5-20 mg/m^2 per day for 10 days during a 21 day cycle
run.parameters: human, in vivo, oral, 5 mg/m2, Cmax, Day 1; dose group 5 mg/m^2; mean
measured.endpoint: Cmax (ng/mL)
Field: numeric (ng/mL). Do not append units.

Find the measured Cmax of CCc1c2c(nc3ccc(OC(=O)N4CCC(N5CCCCC5)CC4)cc13)-c1cc3c(c(=O)n1C2)COC(=O)[C@]3(O)CC [oral irinotecan, reference compound] and report it.
9.65

###

assay.name: Study 2: pharmacokinetics of oral irinotecan and M1, 5-20 mg/m^2 per day for 10 days during a 21 day cycle
run.parameters: human, in vivo, oral, 15 mg/m2, Cmax, Day 1; dose group 15 mg/m^2; mean
measured.endpoint: Cmax (ng/mL)
Field: numeric (ng/mL). Do not append units.

Find the measured Cmax of CCc1c2c(nc3ccc(OC(=O)N4CCC(N5CCCCC5)CC4)cc13)-c1cc3c(c(=O)n1C2)COC(=O)[C@]3(O)CC [oral irinotecan, reference compound] and report it.
26.9
